Source: ChEMBL document CHEMBL1138013

# METHOD_NOTES: Binding affinity against delta opioid receptor […]
# Parameters: species or system Mus musculus
Attribute: Ki
Please respond with the number in nM and leave the unit unwritten.

Solved cases (5 shown):
CCNC(=O)c1ccc(C(=C2CC3CCC(C2)N3Cc2ccoc2)c2ccc(F)cc2)cc1 1.4
CCNC(=O)c1ccc(C(C#N)=C2CC3CCC(C2)N3Cc2ccoc2)cc1 0.3
CCNC(=O)c1ccc(C(=C2CC3CCC(C2)N3Cc2ccoc2)c2cncnc2)cc1 2.3
CCNC(=O)c1ccc(C(=C2CC3CCC(C2)N3Cc2ccoc2)c2ccc(S(N)(=O)=O)cc2)cc1 16
CCNC(=O)c1ccc(C(=C2CC3CCC(C2)N3Cc2cccs2)c2ccccn2)cc1 3.8

Hello, please tell me recorded Ki for this one: "CCNC(=O)c1ccc(/C(=C2\C[C@H]3CC[C@@H](C2)N3Cc2ccsc2)c2ccc(CO)cc2)cc1"
2

Answer with the recorded Ki for the molecule listed here: "CCNC(=O)c1ccc(C(=C2CC3CCC(C2)N3Cc2ccsc2)c2cnccn2)cc1"
17

Name the recorded Ki of the item "C=C(C)CCN1[C@@H]2CC[C@H]1C/C(=C(/c1ccc(C(=O)NCC)cc1)c1cccc(C(C)=O)c1)C2" in your answer.
1.5

Given the molecule "CCNC(=O)c1ccc(C(Br)=C2CC3CCC(C2)N3Cc2ccoc2)cc1" , write its reported Ki.
0.8
